// provenance: paper PMC3784060

ASSAY_NAME: plasma pharmacokinetics (HPLC-MS/MS, population PK model)
DETAILS: human, intravenous, 40 mg/m^2
MEASURED_ATTRIBUTE: concentration at 4 h (ng/mL)
Numbers only, in ng/mL.

Return reported concentration at 4 h; argument: CCc1cnn2c(NCc3ccc[n+]([O-])c3)cc(N3CCCC[C@H]3CCO)nc12 [Dinaciclib]
118

* * *

ASSAY_NAME: plasma pharmacokinetics (HPLC-MS/MS, population PK model)
DETAILS: human, intravenous, 70 mg/m^2
MEASURED_ATTRIBUTE: concentration at 4 h (ng/mL)
Numbers only, in ng/mL.

Return reported concentration at 4 h; argument: CCc1cnn2c(NCc3ccc[n+]([O-])c3)cc(N3CCCC[C@H]3CCO)nc12 [Dinaciclib]
125
